Reference source: the supplement of paper PMC13380429

The following compounds are shown together with reported inhibition of SARS-CoV-2 cytopathic effect values.
tested on: Vero E6 infected with SARS-CoV-2; experiment: inhibition of SARS-CoV-2 cytopathic effect; higher = more antiviral protection, active = above 15; conditions: 1 nM; 48 h
The reply should contain only the number, in %.

Previously resolved entries follow.
Notebook: pull reported inhibition of SARS-CoV-2 cytopathic effect for Vero E6 infected with SARS-CoV-2, entry N#Cc1ccc(N2N=C3c4ccc(C(=O)O)cc4CC[C@@H]3[C@@H]2C2CCCC2)cc1Cl 7.07

Continue with COCc1c(-c2ccc(NC(=O)Nc3cc(C(F)(F)F)ccc3F)c(F)c2)c2c(N)ncnn2c1CN1CCOCC1 -1.56

Continue with CCOC(=O)[C@H](CCc1ccccc1)N[C@@H](C)C(=O)N1CCC[C@H]1C(=O)O -1.51

Continue with CC1(C)CC(O)CC(C)(C)N1[O] 9.35

Continue with CCc1ccc(C(=O)C(C)CN2CCCCC2)cc1 (stereo not given) 0.14

Continue with COc1ccc(-n2nc(CCC(=O)N(C)O)cc2-c2ccc(Cl)cc2)cc1 0.7

Continue with N[C@]1(C(=O)O)CC[C@@H](C(=O)O)C1 1.21

Continue with CN(c1ncccc1CNc1nc(Nc2ccc3c(c2)CC(=O)N3)ncc1C(F)(F)F)S(C)(=O)=O 0.16

Others:
Notebook: pull reported inhibition of SARS-CoV-2 cytopathic effect for Vero E6 infected with SARS-CoV-2, entry O=c1cc(N2CCNCC2)oc2c(-c3ccccc3)cccc12 0.61

Continue with NC(=O)Cc1cccc(C(=O)c2ccccc2)c1N -0.09

----------
test system: Vero E6 infected with SARS-CoV-2; test: inhibition of SARS-CoV-2 cytopathic effect; higher = more antiviral protection, active = above 15; details: 1 nM; 48 h
Measured parameter: inhibition of SARS-CoV-2 cytopathic effect (%)
The reply should contain only the number, in %.

Previously resolved entries follow.
Reported inhibition of SARS-CoV-2 cytopathic effect for Cc1ncc(CO)c(CO)c1O [pyridoxine] : what is it? -15.8

Continue with CCCCCCCCC(=O)N[C@H](CN1CCCC1)[C@H](O)c1ccc2c(c1)OCCO2 3.01

Continue with CCN1CCN(Cc2ccc(Nc3ncc(F)c(-c4cc(F)c5nc(C)n(C(C)C)c5c4)n3)nc2)CC1 [abemaciclib] -2.71

Continue with O=C(Nc1cnc(Cl)nc1)c1ccc(F)c(F)c1 1.95

Continue with NCC1(CC(=O)O)CCCCC1 [gabapentin] -2.49

Others:
Reported inhibition of SARS-CoV-2 cytopathic effect for Cc1c(O)c(=O)ccn1C [deferiprone] : what is it? 0.05

Continue with O=C(Nc1ccc(-c2ccncc2)cc1)N[C@H](CO)c1ccccc1 -3.49

Continue with CCOC(=O)[C@H](CCc1ccccc1)N[C@@H](C)C(=O)N1Cc2cc(OC)c(OC)cc2C[C@H]1C(=O)O [moexipril] -1.91

Continue with O=c1[nH]c2ccc(Cl)cc2c(N[C@@H]2CN3CCC2CC3)c1-c1nc2ccccc2[nH]1 0.01

Continue with CC[C@H](CO)Nc1nc(NCc2ccccc2)c2ncn(C(C)C)c2n1 [roscovitine] 1.02

Continue with C#C[C@]1(O)CC[C@H]2[C@@H]3CCc4cc(O)ccc4[C@H]3CC[C@@]21C 0.97

Continue with COc1ccc(-c2ccc3cc(C(=O)O)ccc3c2)cc1C12CC3CC(CC(C3)C1)C2 [adapalene] -0.05

Continue with Cc1cc(=O)n(-c2ccccc2)[nH]1 [N-demethylantipyrine] 6.19

Continue with CC(C)(C)CCN1C[C@@H]2[C@@H](CNC(=O)c3cc(Cl)cc(Cl)c3)[C@@H]2C1 2.47

Continue with Cc1cc(O)c(C(C)C)cc1Cl [chlorothymol] 0.21

Continue with CN1CCC(=C2c3ccccc3CC(=O)c3sccc32)CC1 [ketotifen] 1.19

Continue with CC[C@]1(O)C[C@@H]2CN(CCc3c([nH]c4ccccc34)[C@@](C(=O)OC)(c3cc4c(cc3OC)N(C)[C@H]3[C@@](O)(C(N)=O)[C@H](O)[C@]5(CC)C=CCN6CC[C@]43[C@@H]65)C2)C1 [vindesine] 0.4

Continue with Oc1cc(O)c2c(c1)O[C@H](c1ccc(O)c(O)c1)[C@@H](O)C2 [cianidanol] -1.29

Continue with CN(C(=O)c1ccc(F)cc1C(F)(F)F)C1CCN(c2nnc(-c3ccnn3C)c3ccccc23)CC1 [taladegib] 0.16

Continue with Cc1cc(N2CCN([C@@H]3CN[C@H](C(=O)N4CCSC4)C3)CC2)n(-c2ccccc2)n1 [teneligliptin] 0.52

Continue with CNC(=O)c1cccc(NC(=O)N2CCC(Oc3ccccc3Cl)CC2)c1 0.48

Continue with CCN(CC)Cc1ccc(C(=O)N(CCc2ccccc2OC)[C@@H]2CCNC2)cc1 -1.07
